Tested on: dinitrofluorobenzene-induced auricle edema reaction
Test: Suppressive action on dinitrofluorobenzene-induced auricle edema reaction in mouse
Type: in vivo
Details: BALE/c mice (female); test compound 1% (w/v %) in acetone applied to front and back of auricle (total 20 μL) 1 hr before and 3 hr after induction; auricle thickness 24 hr after induction

| structure as smiles | auricle edema suppression rate (%) |
| --- | --- |
| Cc1c(Nc2ccc(F)cc2F)c(C(=O)N2CCC(c3ccc(F)cc3)CC2)cn(C)c1=O | 47 |
| Cc1cc(C#N)ccc1Nc1c(C(=O)N2CCC(c3ccc(F)cc3)CC2)cn(C)c(=O)c1Cl | 53 |
| COCCn1cc(C(=O)N2CCC(c3ccc(F)cc3)CC2)c(Nc2ccc3scnc3c2)c(Cl)c1=O | 30 |
| COCCn1cc(C(=O)N2CCC(c3ccc(F)cc3)CC2)c(Nc2ccc(F)cc2F)c(Cl)c1=O | 32 |
| Cc1ccc(Cl)cc1Nc1c(C(=O)N2CCC(c3ccc(F)cc3)CC2)cn(OCCO)c(=O)c1Cl | 41 |
